assay protocol: Solubility of OPTS in H2O (stock solutions, verified by light scattering)
Type: physicochemical
condition label: water, aqueous stock solution

>  <structure notation>
CCCCCCCC(=O)Oc1cc(S(=O)(=O)[O-])c2ccc3c(S(=O)(=O)[O-])cc(S(=O)(=O)[O-])c4ccc1c2c43.[Na+].[Na+].[Na+]

>  <solubility>
≥ 2000 µM

$$$$
